Hey, just so you know, these numbers are from patent US12037339B2.

This listing pairs compounds with measured EC50.
# Target System: (Homo sapiens, UniProt P43220)
# Sequence (P43220 24-463): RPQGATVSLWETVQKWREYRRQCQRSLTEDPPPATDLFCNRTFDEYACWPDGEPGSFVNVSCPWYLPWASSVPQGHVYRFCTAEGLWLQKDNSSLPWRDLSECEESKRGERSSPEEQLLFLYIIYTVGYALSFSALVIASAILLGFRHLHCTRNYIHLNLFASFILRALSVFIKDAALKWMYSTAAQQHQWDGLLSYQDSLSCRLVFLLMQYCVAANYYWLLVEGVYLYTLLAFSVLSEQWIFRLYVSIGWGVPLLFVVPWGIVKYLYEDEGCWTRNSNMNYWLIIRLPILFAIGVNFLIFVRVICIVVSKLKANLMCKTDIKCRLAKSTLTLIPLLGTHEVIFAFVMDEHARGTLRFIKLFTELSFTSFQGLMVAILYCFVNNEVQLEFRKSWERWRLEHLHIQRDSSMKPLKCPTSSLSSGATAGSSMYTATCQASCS
# Assay Text: h-GLP-1 activity assay (cAMP HTRF, HEK293 cells with stable expression of human GLP-1)
# Conditions: relative EC50, 10 nM human GLP-1 set as 100% response, 30 min at 37° C.

Record excerpt, results attached:
Cc1cc(-n2nc3c(c2-n2ccn(-c4ccc5c(cnn5C)c4F)c2=O)[C@H](C)N(C(=O)c2cc4cc(C5CCOC(C)(C)C5)ccc4n2C2(c4nnc(O)s4)CC2)CC3)cc(C)c1F (mixture of isomers)	< 0.02 µM
Cc1cc(-n2nc3c(c2-n2ccn(-c4ccc5c(cnn5C)c4F)c2=O)[C@H](C)N(C(=O)c2cn4cc(-c5ccnc(C(F)(F)F)c5)ccc4c2Cc2noc(=O)[nH]2)CC3)cc(C)c1F	< 0.02 µM
C[C@H]1c2c(nn(-c3ccc(F)c(C4CC4)c3)c2-n2ccn(-c3ccc4c(cnn4C)c3F)c2=O)CCN1C(=O)c1cc2nc([C@@H]3CCOC(C)(C)C3)ccn2c1C1(c2noc(=O)[nH]2)CC1 (single isomer, unassigned)	< 0.02 µM

Now turn to the next compound.
# return recorded EC50 for input C[C@H]1c2c(-n3ccn(-c4ccc5c(cnn5C)c4F)c3=O)c(-c3ccc(F)c(Cl)c3)nn2CCN1C(=O)c1cc2cc([C@@H]3CCOC(C)(C)C3)ccc2n1C1(c2noc(=O)[nH]2)CC1 (single isomer, unassigned)
> 0.1 µM

----------
# Target System: (Homo sapiens)
# Assay Text: h-GLP-1 activity assay (cAMP HTRF, HEK293 cells with stable expression of human GLP-1)
# Conditions: relative EC50, 10 nM human GLP-1 set as 100% response, 30 min at 37° C.
Item-by-item account of EC50

Some solved cases for reference:
C[C@H]1c2c(nn([C@@H](C)c3ccc(F)cc3)c2-n2ccn(-c3ccc4c(cnn4C)c3F)c2=O)CCN1C(=O)c1cc2cc([C@@H]3CCOC(C)(C)C3)ccc2n1C1(c2noc(=O)[nH]2)CC1 (single isomer, unassigned)	< 20 nM
C[C@@H]1c2c(-n3ccn(-c4ccc5c(cnn5C)c4F)c3=O)c(-c3ccc(F)c(C(F)(F)F)c3)nn2CCN1C(=O)c1cc2cc([C@@H]3CCOC(C)(C)C3)ccc2n1C1(c2noc(=O)[nH]2)CC1 (single isomer, unassigned)	> 100 nM
Cc1cc(-n2nc3c(c2-n2ccn(-c4ccc5c(cnn5C)c4F)c2=O)[C@H](C)N(C(=O)c2cn4cc([C@H]5CCOC6(CC6)C5)ccc4c2C2(c4noc(=O)[nH]4)CC2)CC3)cc(C)c1F (single isomer, unassigned)	< 20 nM

Indicate its recorded EC50; the compound in question is C[C@H]1c2c(nn(-c3ccc(F)c(C4CC4)c3)c2-n2ccn(-c3ccc4c(cnn4C)c3F)c2=O)CCN1C(=O)c1nn2cc([C@@H]3CCOC(C)(C)C3)ccc2c1C1(c2noc(=O)[nH]2)CC1 (single isomer, unassigned)
< 20 nM

----------
Catalogue of pEC50 values
# Target System: (Homo sapiens, UniProt P43220)
# Assay Text: h-GLP-1 activity assay (cAMP HTRF, HEK293 cells with stable expression of human GLP-1)
# Conditions: relative EC50, 10 nM human GLP-1 set as 100% response, 30 min at 37° C.
pEC50: −log10 of the molar value.

Some compounds with known pEC50 results, for comparison:
Cc1cc(-n2nc3c(c2-n2ccn(-c4ccc5c(cnn5C)c4F)c2=O)CN(C(=O)c2cc4cc(C5CCOC(C)(C)C5)ccc4n2Cc2cc(O)no2)CC3)cc(C)c1F (racemic) [Compound 36]	< 7.00
Cc1cc(-n2nc3c(c2-n2ccn(-c4ccc5c(cnn5C)c4F)c2=O)[C@H](C)N(C(=O)c2cc4cc([C@@H]5CCOC(C)(C)C5)ccn4c2C2(c4noc(=O)[nH]4)CC2)CC3)cc(C)c1F (single isomer, unassigned) [Compound 10]	> 7.70
Cc1cc(-n2nc3c(c2-n2ccn(-c4ccc5c(cnn5C)c4F)c2=O)CN(C(=O)c2cc4cc(C5CCOCC5)ccc4n2-c2cccc4[nH]nnc24)CC3)cc(C)c1F [Compound 59]	< 7.00

Continue with the compound presented below.
Read off the recorded pEC50 for COCC12CCC(n3ccn(-c4c(-c5ccc(F)cc5)nn5c4[C@H](C)N(C(=O)c4cc6cc([C@H]7CCOC(C)(C)C7)ccc6n4[C@@]4(c6noc(=O)[nH]6)C[C@@H]4C)CC5)c3=O)(CC1)CC2 (single isomer, unassigned) [Compound 63]
< 7.00
